The measured values listed here are drawn from ChEMBL document CHEMBL6071157.

# Test system: Staphylococcus aureus
# Test details: Antibacterial activity against Staphylococcus aureus ATCC 29213 assessed as inhibition of bacterial growth by broth microdilution method
# Type: functional
List of MIC values.

Answered examples (8):
                                   molecule            test_target  readout_kind      result
0  Cc1[nH]c(C(=O)Nc2ccc(-c3noc(=O)[nH]3)cc2N2CCOCC2)c(Cl)c1Cl  Staphylococcus aureus           MIC     4 µg/mL
1  Cc1[nH]c(C(=O)Nc2ccc(-c3noc(=O)[nH]3)cc2N2CCN(c3ccccc3)CC2)c(Cl)c1Cl  Staphylococcus aureus           MIC     4 µg/mL
2  Cc1[nH]c(C(=O)Nc2ccc(-c3noc(=O)[nH]3)cc2NC2CCN(C(=O)OC(C)(C)C)CC2)c(Cl)c1Cl  Staphylococcus aureus           MIC     2 µg/mL
3  Cc1nnc(-c2ccc(NC(=O)c3[nH]c(C)c(Cl)c3Cl)c(OC(C)C)c2)o1  Staphylococcus aureus           MIC  > 64 µg/mL
4  Cc1[nH]c(C(=O)Nc2ccc(-c3nnn[nH]3)cc2N2CCOCC2)c(Cl)c1Cl  Staphylococcus aureus           MIC  > 64 µg/mL
5  Cc1[nH]c(C(=O)Nc2ccc(-n3nn[nH]c3=O)cc2N2Cc3ccccc3C2)c(Cl)c1Cl  Staphylococcus aureus           MIC    16 µg/mL
6  Cc1[nH]c(C(=O)Nc2ccc(-n3nn[nH]c3=O)cc2N2CC[C@H](N)C2)c(Cl)c1Cl.Cl  Staphylococcus aureus           MIC  > 32 µg/mL
7  Cc1[nH]c(C(=O)Nc2ccc(-c3noc(=O)[nH]3)cc2N2CCCC(CN)C2)c(Cl)c1Cl.Cl (stereo not given)  Staphylococcus aureus           MIC     4 µg/mL

Exercise: So what does the record say about MIC for Cc1[nH]c(C(=O)Nc2ccc(-n3nn[nH]c3=O)cc2N2CCN(c3ccccc3)CC2)c(Cl)c1Cl ?
Key: > 32 µg/mL

Exercise: And then Cc1[nH]c(C(=O)Nc2ccc(-c3noc(=O)[nH]3)cc2N2CCC(NC(=O)OC(C)(C)C)CC2)c(Cl)c1Cl , what is it?
Key: > 64 µg/mL
